# Tested on: MS2 coat protein
# ASSAY_EXPLANATION: apparent KD of MS2 coat protein; designed switch direction (-1 OFF switch, 1 ON switch): -1; higher = weaker reporter binding
# CONDITION_INFO: Eterna round: R95; input ligand: microRNA oligo, concentration not stated
EXPERIMENTAL_READOUT: apparent KD of MS2 coat protein (nM)
API: value field is a number in nM; no unit string.

UUUAAUUUUUUUUUUUUACAAGCUUUUUGCUCGUCUUAUACAUGAGGAUCACCCAUGUGGGUGGAGGAUAAAUUAUC [JMF 35] (puzzle: Sensor v3, turn-off variant 2) ... 45.4
UUUAAAACAUAGGAUAUCGAAAUUAUCAUUUAACGAGAAGGAUGAACAUGAGGAUCACCCAUGUGGUAUCAUGG [Mat - Exclusion 6 - JL Mod - D17] (puzzle: Exclusion 6) ... 184
AGUCGGCGAGGAUAUACAUGAGGAUCACCCAUGUGUGAUCCUAGACCUGUAGGUCCAUGUAGAAGGCGCUGACA [Exclusion 3 - Was a mod at one point] (puzzle: Exclusion 3) ... 18.8

# get_value(readout= apparent KD of MS2 coat protein, system= MS2 coat protein) for UCAUGUUUAGAGGAUAUGAUUACUCUAGAGUGAUCAGAAGGCUAGACAUGAGGAUCACCCAUGUCAGAACAUGG [Exclusion 6 - B - 17:c] (puzzle: Exclusion 6) 21.5

Missing value: apparent KD of MS2 coat protein, MS2 coat protein, entry GUAGAGUAAGGAUAUACAGAAUAGGAUAGAAUGGUUAGAAUGUAGAAGGUACAUGAGGAUCACCCAUGUAAUGU [Excluse me!!!! 8 - Jieux - Exclusion 4] (puzzle: Exclusion 4) . Fill in? 19.7

====

// reported apparent KD of MS2 coat protein for each item listed
# Test system: MS2 coat protein
# ASSAY_EXPLANATION: apparent KD of MS2 coat protein; designed switch direction (-1 OFF switch, 1 ON switch): -1; higher = weaker reporter binding
# CONDITION_INFO: input ligand: FMN 200 uM
Lab book: enter the figure in nM, no units written.

Here are 5 sequences together with their reported answers.
UUUCAUCAUGUAGGAUAUGCGUGGCGAAGCUAUGCAGAAGGACAUGAGGAUCACCCAUGUUCUUGCGUCUGCGUACAGAUGCAA [JL ENG1 1.34] (Eterna round: R96, puzzle: Exclusion NG 1) ... 266
UUUUUAUAUGAAGGAUAUACUUAACAUGAGGAUCACCCAUGUGGUGUUGUGAGUGAGUGAGUUUAGUAGAAGGUCAAUGAUUUA [JMF's solution 62] (Eterna round: R96, puzzle: Exclusion NG 2) ... 1210
CCAUGUGAGGAGGAUAUCGCCGCGCGAACCGAAUGAGAAGGUCUUACAUGAGGAUCACCCAUGUAAAGUACAUC [Eternabot (L1) Solution 1] (Eterna round: R97, puzzle: Exclusion 6) ... 20.9
GAGCCAUCGUGAGAUGGCUAAUAUACAUGAGGAUCACCCAUGUAGGAUAUCGAUUGCUUUGCAGUCGAGAAGGACAUGUUUAAU [JL ENG3 3.97] (Eterna round: R96, puzzle: Exclusion NG 3) ... 67.4
UUUUUAUAUGAAGGAUAUACUUAACAUGAGGAUCACCCAUGUGGUGUUGUGAGUGAGUGAGUUUAGUAGAAGGUCAAGUAUUUG [JMF's solution 42] (Eterna round: R96, puzzle: Exclusion NG 2) ... 689

Entry AGUCGUAAACAAGUUUCUGACAUGAGGAUCACCCAUGUGAGACUAAAAGUAUCAGAUUGCCUAAUAAGUAGCUCGUC [Eternabot (L2) Solution 29] (Eterna round: R97, puzzle: Sensor, turn-off variant 1) : reported apparent KD of MS2 coat protein = ? 20.6

Return reported apparent KD of MS2 coat protein; argument: GAAAACGGAGAGGAUAUUUGAGAUCAAAGCUCCAAAGAAGGCUCCACAUGAGGAUCACCCAUGUGGUCUUCAAG [Mat - Exclusion 6 - JL Mod - D14] (Eterna round: R97, puzzle: Exclusion 6) 86.7

Any idea what its apparent KD of MS2 coat protein is? The sequence is UGAGCUUCAGGAUAUAUGUGGCGACCGUGAGGUCGAAGGUUACAUGAGGAUCACCCAUGUAGAAGGGAAGUUCU [Mat - Exclusion 2 - JL Mod - D19] (Eterna round: R97, puzzle: Exclusion 2) 181

What value of measured apparent KD of MS2 coat protein is listed for UUCUGCACGCUGCGGUCCUACAUGAGGAUCACCCAUGUGGUCUGGUGGCGUGGGUCGCCGGACUUGGCUCGUCUUGA [salish99_S_TOV1_R5_044] (Eterna round: R97, puzzle: Sensor, turn-off variant 1) ? 18.2

Could you share which apparent KD of MS2 coat protein value was measured for UAUUAGCAAGUAAGGUCCCACAUGAGGAUCACCCAUGUGCUCGUCUCCUCAGGUACGGAGCGGAAACUCCCGAUAUG [Sensor-V1 #92] (Eterna round: R97, puzzle: Sensor, turn-off variant 1) ? 121

What measured apparent KD of MS2 coat protein goes with GAUCUGUAAGGAUAUCGUGCAAGUUUCAAAAGAGGCUUGUGCGAGAAGGUACAUGAGGAUCACCCAUGUAGGUU [Omei Ex4 B15] (Eterna round: R97, puzzle: Exclusion 4) ? 52.6

Suppose we examine the sequence GUGGCACUAGUGAGGAUAUGGAAAUUGACAGAUAUCCAGAAGGCACAUGAGGAUCACCCAUGUCGAAUCCAGCA [Eternabot (L1) Solution 81] (Eterna round: R97, puzzle: Brourd's mod of Exclusion 4) ; what apparent KD of MS2 coat protein value has been reported? 36.9

Look up apparent KD of MS2 coat protein: CUGUGCACGCUGCGAUCCUACAUGAGGAUCACCCAUGUGGUCUGGUGGCGUGGGUCACCGGACUUGGCUCGUCUUGU [salish99_S_TOV1_R5_079] (Eterna round: R97, puzzle: Sensor, turn-off variant 1) 79

For UGAGUGCUGCGAGGAUAUACAUGAGGAUCACCCAUGUGGAUGUCUGAGGCAAAGCCUCAGACAAUGUAGAAGGCGCAGUACUCU [Mat - Exclusion NG 2 - Mod of JL - D55] (Eterna round: R96, puzzle: Exclusion NG 2) , what is its reported apparent KD of MS2 coat protein? 96.1

Returns the measured apparent KD of MS2 coat protein for the input sequence. Input: CGCGCCUGGGUCGAACGACACAUGAGGAUCACCCAUGUCAGAGGCGUAGAAUGCACAAGCUUUGACCUCGUUACGCU [Eternabot (L2) Solution 39] (Eterna round: R97, puzzle: Sensor, turn-off variant 1) 18

Reported apparent KD of MS2 coat protein for UGUUGUCGCGCAGGAUAUGAGGAUCACCCAUAUCAGGAUAUCGAAAGAGAAUUUCUGAGGAUCACCCAGAAGGGCGGGACAACU [pwkr exNG2 2xF5 2xFMN.34] (Eterna round: R96, puzzle: Exclusion NG 2) : what is it? 210

Give the measured apparent KD of MS2 coat protein of UAAACAAGCUAAAGAUCCCACAUGAGGAUCACCCAUGUGCUCGUCUUGUAACGUACUGUGACGAAAGUCACGGUACG [JL TOV1 3.11] (Eterna round: R97, puzzle: Sensor, turn-off variant 1) . 19.1
